# target-system: recombinant human GM-CSF (Peprotech) (human, UniProt P04141 18-144)
# Sequence (P04141 18-144 limits assumed): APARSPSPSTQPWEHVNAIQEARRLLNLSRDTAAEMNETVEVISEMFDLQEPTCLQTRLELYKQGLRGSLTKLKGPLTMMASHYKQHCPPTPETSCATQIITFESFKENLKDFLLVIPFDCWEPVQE
# test: cell-based or functional assay
Quick reference for EC50, TF-1 cell growth (3H-thymidine) with GM-CSF among some binders
Answer format: numeric, nM implied, no suffix.

# binder, quantity-unit, test-value
measured = [
    ("hGM4/22 (antibody, V domains shown) VH: QVQLQESGGGLVKPGGSLKLSCAASGFAFSAYDMSWVRQTPDKRLEWVAYISSGGSSFYYPDTVKGRFTISRDNAKNTLYLQMSSLKSEDTAMYYCTRHLGFDYWGQGTMVTVSS VL: DVVMTQSPLSLPVTPGEPASISCRSSQSLVNSNGNTYLHWYLQKPGQSPQLLIYKVSNRFSGVPDRFSGSGSGTDFTLKISRVEAEDVGVYYCSQSTHVPPTFGGGTKVEIK", "nM", 2.12),
]

Prompt: Supply reported EC50, TF-1 cell growth (3H-thymidine) with GM-CSF belonging to this binder: hGM4/21 (antibody, V domains shown) VH: QVQLQESGGGLVKPGGSLKLSCAASGFAFSAYDMSWVRQTPDKRLELVAYISSGGSSFYYPDTVKGRFTISRDNAKNTLYLQMSSLKSEDTAMYYCARHLGFDYWGQGTMVTVSS VL: DVVMTQSPLSLPVTPGEPASISCRSSQSLVNSNGNTYLHWYLQKPGQSPQLLIYKVSNRFSGVPDRFSGSGSGTDFTLKISRVEAEDVGVYYCSQSTHVPPTFGGGTKVEIK
Completion: 1.19
